Reported pIC50 values are given for each entry in this list.
# tested.system: Aromatase (Homo sapiens)
# Sequence (P11511 whole entry): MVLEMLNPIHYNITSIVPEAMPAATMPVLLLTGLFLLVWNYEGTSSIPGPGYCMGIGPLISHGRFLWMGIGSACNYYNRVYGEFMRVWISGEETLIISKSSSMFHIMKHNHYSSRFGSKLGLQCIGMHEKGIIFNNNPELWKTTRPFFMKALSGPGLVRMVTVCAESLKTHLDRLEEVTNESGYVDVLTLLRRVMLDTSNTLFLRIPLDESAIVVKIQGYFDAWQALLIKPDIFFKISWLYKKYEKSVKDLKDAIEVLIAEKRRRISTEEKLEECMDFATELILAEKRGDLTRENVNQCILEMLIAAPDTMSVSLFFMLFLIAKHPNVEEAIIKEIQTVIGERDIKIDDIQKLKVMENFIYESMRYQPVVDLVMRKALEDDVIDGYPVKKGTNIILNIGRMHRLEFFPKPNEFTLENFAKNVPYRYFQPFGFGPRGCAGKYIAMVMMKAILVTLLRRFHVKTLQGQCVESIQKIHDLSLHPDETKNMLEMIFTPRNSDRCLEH
# assay.notes: Inhibition of aromatase in human placental microsomes assessed as inhibition of aromatization of [1,2,6,7-3H] androstenedione by flow scintillation analysis
# Design: species or system Placenta
For clarity, pIC50 is expressed as the negative log10 of concentration in mol/L.

Q: Fill in the blank: the reported pIC50 of N#Cc1ccc(C2CC(n3ccnc3)c3ccc4ccccc4c3O2)cc1 (stereo in doubt) is ____.
Result: 7.47

Q: Name the recorded pIC50 for c1ccc(C2CC(n3ccnc3)c3ccc4ccccc4c3O2)cc1 (trans isomer) .
Result: 7.44

Q: Quick one: pIC50 of N#Cc1ccc(C2CC(n3ccnc3)c3ccc4ccccc4c3O2)cc1 (mixture of isomers) ?
Result: 7.11
